Values from patent US20260125381A1

Biological target: Kv3.1 (Homo sapiens)
Sequence (P48547 whole entry): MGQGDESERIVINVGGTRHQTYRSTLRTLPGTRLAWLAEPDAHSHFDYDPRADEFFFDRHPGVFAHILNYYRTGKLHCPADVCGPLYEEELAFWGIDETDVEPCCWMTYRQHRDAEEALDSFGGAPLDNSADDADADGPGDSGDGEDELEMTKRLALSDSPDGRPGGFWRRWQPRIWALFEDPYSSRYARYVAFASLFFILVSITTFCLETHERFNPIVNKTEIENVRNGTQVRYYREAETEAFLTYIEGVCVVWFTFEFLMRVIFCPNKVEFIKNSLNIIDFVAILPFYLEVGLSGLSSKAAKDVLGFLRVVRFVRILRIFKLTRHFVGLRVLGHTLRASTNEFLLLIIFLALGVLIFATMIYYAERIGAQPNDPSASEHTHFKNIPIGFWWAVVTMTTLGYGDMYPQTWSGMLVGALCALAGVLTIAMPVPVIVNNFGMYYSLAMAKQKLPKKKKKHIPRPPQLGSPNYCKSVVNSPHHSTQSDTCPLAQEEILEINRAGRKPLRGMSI
Assay: FLIPR based Tl+ influx assay for positive modulators of Kv3.1
Format: cell-based
Set-up: expressed in transfected cells; host or cells: ARF (assay-ready frozen) cells
Conditions: thallium influx, FLIPR Tetra, 1536-well
measured endpoint: pEC50
The value called pEC50 is obtained by taking minus log10 of the concentration in mol/L.

Recorded pEC50 for Cc1ncc2[nH]c(=O)n(-c3cnc(Oc4cccc5c4C(C)(C)CO5)c(Cl)c3C)c2n1 , please?
7.51

Recorded pEC50 for Cc1ncc2[nH]c(=O)n(-c3cnc(Oc4cccc5c4C(C)(C)CO5)c(Cl)c3)c2n1 , please?
6.84

Recorded pEC50 for Cc1cccc(Oc2ccc(-n3c(=O)[nH]c4cccnc43)cn2)c1C , please?
5.79
